System: Trichophyton tonsurans
ASSAY_OVERVIEW: MIC (Minimum Inhibitory Concentration)
Type: cell-based
ASSAY_SETUP: Trichophyton tonsurans 561-50; read-out: MIC values
EXPERIMENTAL_READOUT: MIC (µg/mL)
Express your answer in µg/mL, writing the number without its unit.

Examples with their reported MIC follow.
# COMPOUND, UNITS_OF_MEASURE, MIC
rows = [
    ("[C-]#[N+]C(=CCCC)S(=O)(=O)c1ccc(C)cc1 [Example 24]", "µg/mL", 25),
    ("[C-]#[N+]C(=C(CCCCC)CCCCC)S(=O)(=O)c1ccc(C)cc1 [Example 26]", "µg/mL", 100),
    ("[C-]#[N+]C(C(C)=CC)S(=O)(=O)c1ccc(C)cc1 (centres unmarked) [Example 27b]", "µg/mL", 3),
    ("[C-]#[N+]C(=C(C)CC)S(=O)(=O)c1ccc(C)cc1 [Example 27a]", "µg/mL", 3),
    ("[C-]#[N+]C(=CC(C)(C)C)S(=O)(=O)c1ccc(C)cc1 [Example 4]", "µg/mL", 1.5),
]

Prompt: May I ask what MIC has been recorded for [C-]#[N+]C(=C(C)c1ccco1)S(=O)(=O)c1ccc(C)cc1 [Example 13] ?
Completion: 3

Prompt: Then this compound: [C-]#[N+]C(=Cc1ccco1)S(=O)(=O)c1ccc(C)cc1 [Example 10]
Completion: 3
